# Tested target: cannabinoid CB1 (Homo sapiens, UniProt P21554)
# Construct: purchased
# Sequence (P21554 whole entry): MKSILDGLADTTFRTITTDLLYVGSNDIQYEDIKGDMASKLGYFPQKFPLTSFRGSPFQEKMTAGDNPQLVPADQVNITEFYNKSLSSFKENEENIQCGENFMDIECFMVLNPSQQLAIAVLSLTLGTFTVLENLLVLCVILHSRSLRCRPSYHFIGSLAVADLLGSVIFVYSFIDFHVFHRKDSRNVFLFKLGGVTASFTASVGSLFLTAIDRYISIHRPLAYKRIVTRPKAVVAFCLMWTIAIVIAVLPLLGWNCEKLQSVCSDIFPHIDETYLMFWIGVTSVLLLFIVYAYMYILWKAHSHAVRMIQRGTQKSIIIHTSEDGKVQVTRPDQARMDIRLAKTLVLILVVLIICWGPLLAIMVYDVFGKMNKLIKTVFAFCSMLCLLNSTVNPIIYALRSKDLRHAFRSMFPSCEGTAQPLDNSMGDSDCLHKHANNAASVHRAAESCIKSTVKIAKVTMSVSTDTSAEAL
# Assay method text: Competition binding assay for cannabinoid CB1 affinity (3H-CP55,940 displacement, membranes)
Quantity name: Ki

INSERT INTO measurements (smi, quantity_name, reported_result) VALUES
  ('N#Cc1ccc(C(=O)NC[C@@H]2CC[C@@H](c3ccc(Cl)cc3Cl)N(c3ccc(Cl)cc3)C2)cc1', 'Ki', '~4 nM');

Origin of measurements: patent US20070203183A1
